ASSAY TARGET: nicAchRs
PROTOCOL NOTES: [3H]-epibatidine competition binding in rat cortical membranes
MEASUREMENT SETUP: read-out: Ki, [3H]-epibatidine binding
QUANTITY NAME: pKi
Lab note — pKi values are minus log10 of concentrations in M.

Query (compound): CN1CCCC2C(c3ccccc3)C(C3=NCCCC3)C(c3ccccc3)CC21 (stereo not shown) [Lobinaline, lobinaline] ; field requested: pKi 4.79

----------
ASSAY TARGET: DAT (Rattus norvegicus)
Sequence (P23977 whole entry): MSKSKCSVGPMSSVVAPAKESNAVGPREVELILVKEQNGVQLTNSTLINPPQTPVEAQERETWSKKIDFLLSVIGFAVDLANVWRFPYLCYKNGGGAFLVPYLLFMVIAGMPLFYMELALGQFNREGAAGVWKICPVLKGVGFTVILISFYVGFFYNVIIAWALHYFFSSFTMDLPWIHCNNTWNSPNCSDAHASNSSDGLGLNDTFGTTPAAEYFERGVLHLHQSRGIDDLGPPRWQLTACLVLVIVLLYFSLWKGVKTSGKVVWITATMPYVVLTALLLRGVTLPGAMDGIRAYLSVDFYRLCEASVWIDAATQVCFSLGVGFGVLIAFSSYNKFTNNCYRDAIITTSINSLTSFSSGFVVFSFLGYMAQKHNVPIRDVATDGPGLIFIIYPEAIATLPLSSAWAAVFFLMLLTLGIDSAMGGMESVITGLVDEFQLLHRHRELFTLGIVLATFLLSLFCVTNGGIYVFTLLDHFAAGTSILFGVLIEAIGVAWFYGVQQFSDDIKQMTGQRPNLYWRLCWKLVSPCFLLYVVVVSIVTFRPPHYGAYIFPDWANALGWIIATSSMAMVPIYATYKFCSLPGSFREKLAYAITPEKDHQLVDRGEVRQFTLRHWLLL
QUANTITY NAME: pKi
Lab note — pKi values are minus log10 of concentrations in M.

Query (compound): CN1CCCC2C(c3ccccc3)C(C3=NCCCC3)C(c3ccccc3)CC21 (stereo not shown) ; field requested: pKi 5.59
